# measurement-target: human mAChR M1 (Homo sapiens)
# Construct: host or cells: CHO-K1 cells (ATCC), stably transfected using Lipofectamine2000
# assay-name: mAChR M1 cell-based functional assay (calcium mobilization), PAM activity: increase in the EC20 acetylcholine response
# condition: CHO-K1 cells expressing hM1; potentiation of EC20 acetylcholine response
pEC50: −log10 of the molar value.
attribute-measured: pEC50

compound	measurement-target	qualifier-sign	measured-result
Cc1cc(-c2ccc(Cn3cc(C(=O)N[C@H]4CCCC[C@@H]4O)c4ncccc4c3=O)c(F)c2)ccn1 [Compound A27]	human mAChR M1 (Homo sapiens)	=	6.07
Cn1cc(-c2ccc(Cn3cc(C(=O)N[C@H]4CCCCC[C@@H]4O)c4ncccc4c3=O)cc2)cn1 [Compound A87]	human mAChR M1 (Homo sapiens)	=	6.09
O=C(N[C@H]1CCCCC[C@@H]1O)c1cn(Cc2ccc(-c3cscn3)cc2)c(=O)c2cccnc12 [Compound A60]	human mAChR M1 (Homo sapiens)	=	6.21
Cn1cc2c(-c3cc(F)c(Cn4cc(C(=O)NC5(CO)CCOC5)c5nccnc5c4=O)c(F)c3)cccc2n1 (stereo not shown) [Compound A72]	human mAChR M1 (Homo sapiens)	≤	5.00

====

# measurement-target: human mAChR M1 (Homo sapiens, UniProt P11229)
# Construct: host or cells: CHO-K1 cells (ATCC), stably transfected using Lipofectamine2000
# assay-name: mAChR M1 cell-based functional assay (calcium mobilization), PAM activity: increase in the EC20 acetylcholine response
# condition: CHO-K1 cells expressing hM1; potentiation of EC20 acetylcholine response
molecules and their reported Emax

smiles-repr	Emax [%]
Cn1ccc(-c2ccc(Cn3cc(C(=O)N[C@H]4CCOC[C@@H]4O)c4nccnc4c3=O)c(F)c2)n1	55
Cn1ccc(-c2ccc(Cn3cc(C(=O)N[C@H]4CCC[C@@H]4O)c4ncn(C)c4c3=O)c(F)c2)n1	45
Cc1nc(-c2ccc(Cn3cc(C(=O)N[C@H]4CCOC[C@@H]4O)c4ncccc4c3=O)cc2)co1	67
Cn1cc2c(-c3cc(F)c(Cn4cc(C(=O)N[C@H]5CCCCC[C@@H]5O)c5ncccc5c4=O)c(F)c3)cccc2n1	67
O=C(N[C@H]1CCC[C@@H]1O)c1cn(Cc2ccc(-n3cccn3)cc2)c(=O)c2nccnc12	33
Cc1cc(-c2cc(F)c(Cn3cc(C(=O)N[C@H]4CCOC[C@@H]4O)c4ncccc4c3=O)c(F)c2)ccn1	65
Cn1cc(-c2ccc(Cn3cc(C(=O)N[C@H]4CCC[C@@H]4O)c4occc4c3=O)c(F)c2)cn1	51

====

# measurement-target: human mAChR M1 (Homo sapiens, UniProt P11229)
# Construct: host or cells: CHO-K1 cells (ATCC), stably transfected using Lipofectamine2000
# assay-name: mAChR M1 cell-based functional assay (calcium mobilization), PAM activity: increase in the EC20 acetylcholine response
# condition: CHO-K1 cells expressing hM1; potentiation of EC20 acetylcholine response
// classify: if (Emax < 70%) Fulfilled else Not fulfilled

compound	answer-label
Cc1cncc(-c2cc(F)c(Cn3cc(C(=O)N[C@H]4CCCC[C@@H]4O)c4ncccc4c3=O)c(F)c2)c1	Fulfilled
Cn1ccc(-c2ccc(Cn3cc(C(=O)NC4CC5(COC5)C4)c4occc4c3=O)c(F)c2)n1	Fulfilled
Cn1ccc(-c2ccc(Cn3cc(C(=O)NC4CC5(COC5)C4)c4ncccc4c3=O)c(F)c2)n1	Fulfilled
CC1(C)COCCC1NC(=O)c1cn(Cc2ccc(-n3cccn3)cc2)c(=O)c2ccoc12 (stereo not shown) [Compound D1]	Fulfilled
Cn1cc2c(-c3cc(F)c(Cn4cc(C(=O)N[C@H]5CCCC[C@@H]5O)c5occc5c4=O)c(F)c3)cccc2n1	Not fulfilled
Cc1cn2c(=O)n(Cc3ccc(-c4ccn(C)n4)cc3F)cc(C(=O)N[C@H]3CCCC[C@@H]3O)c2n1	Fulfilled
Cc1cncc(-c2cc(F)c(Cn3cc(C(=O)N[C@H]4CCOC[C@@H]4O)c4ncccc4c3=O)c(F)c2)c1	Fulfilled
Cc1cnn(C)c1-c1ccc(Cn2cc(C(=O)N[C@H]3CCCC[C@@H]3O)c3nccn3c2=O)c(F)c1	Fulfilled
Cn1cc2c(-c3cc(F)c(Cn4cc(C(=O)NCC(C)(C)O)c5nccnc5c4=O)c(F)c3)cccc2n1	Fulfilled
Cn1cc2c(-c3cc(F)c(Cn4cc(C(=O)N[C@H]5CCOC[C@@H]5O)c5ncn(C)c5c4=O)c(F)c3)cccc2n1	Fulfilled
Cc1cnn(C)c1-c1ccc(Cn2cc(C(=O)N[C@H]3CCOC[C@@H]3O)c3nccn3c2=O)c(F)c1	Fulfilled
Cn1cc2c(-c3cc(F)c(Cn4cc(C(=O)N[C@H]5CCCC[C@@H]5O)c5nccn5c4=O)c(F)c3)cccc2n1	Fulfilled
Cn1nccc1-c1ccc(Cn2cc(C(=O)N[C@H]3CCC[C@@H]3O)c3nccn3c2=O)c(F)c1	Fulfilled
O=C(N[C@H]1CCCCC[C@@H]1O)c1cn(Cc2ccc(-c3cscn3)cc2)c(=O)c2cccnc12	Fulfilled
Cn1cc2c(-c3cc(F)c(Cn4cc(C(=O)N[C@H]5CCC[C@@H]5O)c5sccc5c4=O)c(F)c3)cccc2n1	Fulfilled
Cn1cc(-c2ccc(Cn3cc(C(=O)N[C@@H]4CC[C@H]4O)c4ncccc4c3=O)c(F)c2)cn1	Fulfilled
Cn1cc2c(-c3cc(F)c(Cn4cc(C(=O)N[C@H]5CCCC[C@@H]5O)c5ncccc5c4=O)c(F)c3)cccc2n1	Fulfilled
Cn1cc2c(-c3cc(F)c(Cn4cc(C(=O)N[C@H]5CCC[C@@H]5O)c5occc5c4=O)c(F)c3)cccc2n1	Not fulfilled
O=C(N[C@H]1CCCC[C@@H]1O)c1cn(Cc2ccc(-c3cscn3)cc2)c(=O)c2cccnc12	Fulfilled
Cn1cc2c(-c3cc(F)c(Cn4cc(C(=O)N[C@H]5CCCCC[C@@H]5O)c5occc5c4=O)c(F)c3)cccc2n1	Not fulfilled

====

compounds and their reported Emax
# measurement-target: human mAChR M1 (Homo sapiens, UniProt P11229)
# Construct: host or cells: CHO-K1 cells (ATCC), stably transfected using Lipofectamine2000
# Sequence (P11229 1-460): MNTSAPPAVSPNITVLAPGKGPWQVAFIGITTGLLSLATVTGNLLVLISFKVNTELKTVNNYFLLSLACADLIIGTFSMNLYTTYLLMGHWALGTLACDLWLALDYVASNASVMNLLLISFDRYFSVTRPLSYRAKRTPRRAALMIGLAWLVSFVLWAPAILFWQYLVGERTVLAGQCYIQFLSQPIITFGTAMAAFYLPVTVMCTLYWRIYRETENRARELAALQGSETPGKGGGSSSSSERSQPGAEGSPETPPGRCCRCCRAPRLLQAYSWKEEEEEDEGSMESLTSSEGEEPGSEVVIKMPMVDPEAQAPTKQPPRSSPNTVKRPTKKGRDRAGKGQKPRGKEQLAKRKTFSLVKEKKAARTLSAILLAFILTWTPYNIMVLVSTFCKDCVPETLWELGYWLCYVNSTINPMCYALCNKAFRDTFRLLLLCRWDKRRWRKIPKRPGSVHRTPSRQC
# assay-name: mAChR M1 cell-based functional assay (calcium mobilization), PAM activity: increase in the EC20 acetylcholine response
# condition: CHO-K1 cells expressing hM1; potentiation of EC20 acetylcholine response

compound	unit-abbreviation	Emax
Cn1ccc(-c2ccc(Cn3cc(C(=O)N[C@@H]4CC[C@H]4O)c4nccn4c3=O)c(F)c2)n1	%	52
Cn1ccc(-c2ccc(Cn3cc(C(=O)N[C@H]4CCC[C@@H]4O)c4ncccc4c3=O)c(F)c2)n1	%	83
Cn1nccc1-c1cc(F)c(Cn2cc(C(=O)N[C@H]3CCOC[C@@H]3O)c3ncccc3c2=O)c(F)c1	%	57
Cn1cc(-c2ccc(Cn3cc(C(=O)NCC(O)C(F)(F)F)c4nccnc4c3=O)c(F)c2)cn1 (stereo not shown)	%	33

====

# measurement-target: human mAChR M1 (Homo sapiens, UniProt P11229)
# Construct: host or cells: CHO-K1 cells (ATCC), stably transfected using Lipofectamine2000
# Sequence (P11229 1-460): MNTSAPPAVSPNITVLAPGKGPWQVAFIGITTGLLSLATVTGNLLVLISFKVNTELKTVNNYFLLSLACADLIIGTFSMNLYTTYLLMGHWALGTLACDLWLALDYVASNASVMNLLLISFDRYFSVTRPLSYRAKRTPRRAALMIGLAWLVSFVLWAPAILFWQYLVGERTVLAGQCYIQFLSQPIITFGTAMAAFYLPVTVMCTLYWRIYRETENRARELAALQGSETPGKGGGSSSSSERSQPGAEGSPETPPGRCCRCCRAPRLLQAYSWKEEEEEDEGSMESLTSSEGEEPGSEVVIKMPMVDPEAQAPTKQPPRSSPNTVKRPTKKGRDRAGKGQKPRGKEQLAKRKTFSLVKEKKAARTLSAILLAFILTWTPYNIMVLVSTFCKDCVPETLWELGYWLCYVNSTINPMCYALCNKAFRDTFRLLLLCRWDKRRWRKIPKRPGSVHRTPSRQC
# assay-name: mAChR M1 cell-based functional assay (calcium mobilization), PAM activity: increase in the EC20 acetylcholine response
# condition: CHO-K1 cells expressing hM1; potentiation of EC20 acetylcholine response

smiles-repr	EC50 (nM)
Cn1cc(-c2ccc(Cn3cc(C(=O)N[C@H]4CCOC[C@@H]4O)c4occc4c3=O)c(F)c2)cn1	4020
O=C(N[C@H]1CCOC[C@@H]1O)c1cn(Cc2ccc(-c3cscn3)cc2)c(=O)c2cccnc12	1150
Cc1cccc(-c2cc(F)c(Cn3cc(C(=O)N[C@H]4CCOC[C@@H]4O)c4ncccc4c3=O)c(F)c2)c1	2600
Cn1cc2c(-c3cc(F)c(Cn4cc(C(=O)N[C@H]5CC[C@@H]5O)c5nccn5c4=O)c(F)c3)cccc2n1	1270

Numbers sourced from patent US20220041606A1.
